Field: koff. Provide a value for each of the binders that follow.
Biological target: T1, E. coli expressed VEGF109 (human, UniProt P15692 207-315)
T1 construct: also called hVEGF109
T1 sequence: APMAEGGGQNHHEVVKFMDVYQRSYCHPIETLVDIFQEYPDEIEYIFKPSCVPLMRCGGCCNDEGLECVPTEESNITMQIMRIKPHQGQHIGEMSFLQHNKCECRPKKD
Experiment: SPR Biacore 3000, periplasmic extract over VEGF109-coated CM5 chip
Method: Analysis of the results was done using BIAevaluation software. Off-rates were determined by the ‘fit kinetics separate ka/kd’ model, langmuir dissociation. A time interval of ±100s was used for the fitting.
Please give a number only; it is taken to be in s⁻¹.

Consider the binder PVEGFPMP42F10 (VHH, tested as periplasmic extract; not shown: C-terminal c-myc tag and (His)6 tag from the vector) VHH: EVQLVESGGGLVQAGGSLRLSCAASGRTFSGVDVAWFRQATGKEREFVAALAWSGIRTYYAVSVKGRFTISRGDPNDTVYLQMTSLKPEDTAVYYCATGRASRTSDYYTDRIYDSWGQGAQVTVSS and give its measured koff.
0.00176

Consider the binder PVEGFPMP42F1 (VHH, tested as periplasmic extract; not shown: C-terminal c-myc tag and (His)6 tag from the vector) VHH: EVQLVESGGGLVQPGGSLRLSCAASGRALDTYTVTWFRQTPGKTREFVASVRWNAKPYTTDSVKGRFTISRDNAKNTVYLQMNSLKPEDTAVYYCAADPTTWADGPYRYWGQGTQVTVSS and give its measured koff.
0.000278

Consider the binder PVEGFPMP42C1 (VHH, tested as periplasmic extract; not shown: C-terminal c-myc tag and (His)6 tag from the vector) VHH: EVQLVESGGGLVQAGGSLRLSCAASGRTFSGVDVAWFRQAPGKEREFVAALAWSGIRTYYAVSVKGRFTISRGNPNDTVYLQMTSLKPEDTAVYYCATGRAYRGSDYYTDRIYDSWGQGAQVTVSS and give its measured koff.
0.00825

Consider the binder PVEGFPMP42D5 (VHH, tested as periplasmic extract; not shown: C-terminal c-myc tag and (His)6 tag from the vector) VHH: EVQLVESGGGLVHAGGALRLSCAASGRAFETYRMGWFRQAPGKEREFVALINWSSGTTVYADSVKGRFTISGDNAKDTVYLEMNSLKPEDTAVYYCAVGRRWSGSYYSALAYQYWGQGTQVTVSS and give its measured koff.
0.000368

Consider the binder PVEGFPMP42A5 (VHH, tested as periplasmic extract; not shown: C-terminal c-myc tag and (His)6 tag from the vector) VHH: EVQLVESGGGLVQAGGSLRLSCAASGRTFSGVDVAWFRQAPGKEREFVAALAWSGIRTYYAVSVKGRFTISRGDPNDTVYLQMTSLKPEDTAVYYCATGRASRTSDYYTDRIYDSWGQGAQVTVSS and give its measured koff.
0.00167

Consider the binder PVEGFPMP42H9 (VHH, tested as periplasmic extract; not shown: C-terminal c-myc tag and (His)6 tag from the vector) VHH: EVQLVESGGGLVQAGGALRLSCAASGRTFETYRMGWFRQAPGKEREFVALINWSSGTTVYADSVKGRFTISGDNAKDTVYLEMNSLKPEDTAVYYCAVGRRWSGSYYSALAYQYWGQGTQVTVSS and give its measured koff.
0.000315

Consider the binder PVEGFPMP42C10 (VHH, tested as periplasmic extract; not shown: C-terminal c-myc tag and (His)6 tag from the vector) VHH: EVQLVESGGGLVQAGGALRLSCAVSGRTFESYRMGWFRQAPGKEREFVSLINWSSGKTIYADSVKGRFTISGDNAKDTVYLEMNSLKPEDTAVYYCAVGRAWSGSYYSALAYQYWGQGTQVTVSS and give its measured koff.
0.00753

Consider the binder PVEGFPMP42E2 (VHH, tested as periplasmic extract; not shown: C-terminal c-myc tag and (His)6 tag from the vector) VHH: EVQLVESGGGLVQAGGSLRLSCAASGRALDTYTVTWFRQTPGKGREFLASIRWNAKPYTTDSVKGRFTMSRDNAKNTVYLQMNSLRPEDTAVYYCAADPTTWADGPYRYWGQGTQVTVSS and give its measured koff.
0.000134

Data provenance is patent US20100120681A1.
